Tested on: HCT-116
Assay: Cytotoxicity against human HCT-116 cells assessed as reduction in cell viability at 500 nM incubated for 24 hrs by MTS assay
Type: toxicity, cell-based
Details: hct-116, 24 h, 0.5 µM
MEASURE: Activity

Known results for compounds:
CHEMICAL_STRING	Activity
CC[C@H](OC)[C@@H](C)[C@H]1O[C@@H]1[C@H](O)[C@H](C)/C=C/C=C(\C)[C@H]1OC(=O)C[C@H](O)CC[C@@](C)(O)[C@@H](OC(C)=O)/C=C/[C@@H]1C	Non-Toxic
CC[C@H](OC)[C@@H](C)[C@H]1O[C@@H]1[C@@H](O)[C@H](C)/C=C/C=C(\C)[C@H]1OC(=O)C[C@H](O)CC[C@@](C)(O)[C@@H](OC(C)=O)/C=C/[C@@H]1C	Non-Toxic
CC[C@H](OC)[C@@H](C)[C@@H]1O[C@H]1[C@@H](O)[C@H](C)/C=C/C=C(\C)[C@H]1OC(=O)C[C@H](O)CC[C@@](C)(O)[C@@H](OC(C)=O)/C=C/[C@@H]1C	Non-Toxic
CC[C@H](OC)[C@@H](C)[C@H]1O[C@@H]1[C@H](O)[C@H](C)/C=C/C=C(\C)[C@H]1OC(=O)C[C@H](O)CC[C@@](C)(O)[C@H](OC(C)=O)/C=C/[C@@H]1C	Non-Toxic
CC[C@H](OC)[C@@H](C)[C@H]1O[C@@H]1[C@@H](O)[C@H](C)/C=C/C=C(\C)[C@H]1OC(=O)C[C@@H](O)CC[C@@](C)(O)[C@@H](OC(C)=O)/C=C/[C@@H]1C	Non-Toxic

[in] Indicate the recorded Activity value for this compound: CC[C@@H](OC)[C@H](C)[C@H]1O[C@@H]1[C@@H](O)[C@H](C)/C=C/C=C(\C)[C@H]1OC(=O)C[C@H](O)CC[C@@](C)(O)[C@@H](OC(C)=O)/C=C/[C@@H]1C
[out] Non-Toxic

[in] Look up and state reported Activity for CC[C@H](OC)[C@@H](C)[C@H]1O[C@@H]1[C@H](OC)[C@H](C)/C=C/C=C(\C)[C@H]1OC(=O)C[C@H](O)CC[C@@](C)(O)[C@@H](OC(C)=O)/C=C/[C@@H]1C
[out] Non-Toxic
